# TARGET_OF_ASSAY: T1, native IHFNTHI (integration host factor of nontypeable Haemophilus influenzae) (nontypeable Haemophilus influenzae …, UniProt P43723 1-96; P43724 1-94)
# T1 construct: also called NTHI IHF
# T1 sequence 1: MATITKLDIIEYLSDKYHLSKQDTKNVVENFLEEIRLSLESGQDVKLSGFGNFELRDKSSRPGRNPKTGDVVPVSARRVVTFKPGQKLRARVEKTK
# T1 sequence 2: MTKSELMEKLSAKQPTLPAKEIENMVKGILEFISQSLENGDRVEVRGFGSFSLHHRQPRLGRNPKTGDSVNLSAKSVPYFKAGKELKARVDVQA
# EXPERIMENT_DESCRIPTION: SPR Biacore 3000, IHFNTHI immobilized, HuMab as analyte
EXPERIMENTAL_READOUT: Kd (nM)
Give bare numbers, in nM.

{"columns": ["BINDER", "ENDPOINT_RESULT"],
 "data": [
  ["humanized anti-tip monoclonal antibody, heavy chain SEQ ID NO: 1 and light chain SEQ ID NO: 7 (antibody, V domains shown, also called HuTipMab; TP-21949) VH: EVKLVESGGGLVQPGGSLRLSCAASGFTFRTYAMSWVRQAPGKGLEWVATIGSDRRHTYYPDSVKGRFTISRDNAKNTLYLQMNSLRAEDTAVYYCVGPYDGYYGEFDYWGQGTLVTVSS VL: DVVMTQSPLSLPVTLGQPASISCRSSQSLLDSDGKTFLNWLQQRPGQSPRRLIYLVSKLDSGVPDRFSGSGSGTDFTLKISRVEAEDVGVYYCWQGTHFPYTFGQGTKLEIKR", 17]
]}

Give one value of Kd per listed binder.
1. humanized anti-tip monoclonal antibody, heavy chain SEQ ID NO: 2 and light chain SEQ ID NO: 8 (antibody, V domains shown, also called H10211 (1F8.F1 Humanized HC2) + L10211 (1F8.F1 Humanized LC2)) VH: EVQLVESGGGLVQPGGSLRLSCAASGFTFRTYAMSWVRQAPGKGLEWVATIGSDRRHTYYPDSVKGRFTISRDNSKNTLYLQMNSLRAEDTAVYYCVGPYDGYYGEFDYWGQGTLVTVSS VL: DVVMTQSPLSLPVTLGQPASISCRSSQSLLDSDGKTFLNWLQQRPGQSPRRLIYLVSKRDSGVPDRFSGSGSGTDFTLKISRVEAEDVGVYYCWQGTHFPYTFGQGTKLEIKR
2. humanized anti-tip monoclonal antibody, heavy chain SEQ ID NO: 3 and light chain SEQ ID NO: 9 (antibody, V domains shown, also called H10212 (1F8.F1 Humanized HC3) + L10212 (1F8.F1 Humanized LC3)) VH: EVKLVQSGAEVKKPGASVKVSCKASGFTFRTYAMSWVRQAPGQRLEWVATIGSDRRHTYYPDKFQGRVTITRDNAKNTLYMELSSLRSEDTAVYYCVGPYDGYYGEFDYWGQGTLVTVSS VL: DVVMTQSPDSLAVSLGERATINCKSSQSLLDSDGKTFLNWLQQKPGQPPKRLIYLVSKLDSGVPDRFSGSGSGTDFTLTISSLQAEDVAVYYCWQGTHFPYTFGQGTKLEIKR

1: 354; 2: 3400

These measurements were taken from patent US20210206841A1.
